# EXPERIMENT_DESCRIPTION: Volume of distribution at steady state in rabbit at 0.1 mg/kg, iv
# STUDY_CONDITIONS: in vivo, read-out: Vdss
PROPERTY_MEASURED: Vd
Write the numeric value and append its unit.

Field Vd (entry COc1cccc(CNC(=O)c2nc3ccc(F)c(OCCc4ccc(C(=O)[O-])cc4)c3c(=O)[nH]2)c1.[Na+] ) reads 1.14 L/kg

* * *

# STUDY_TARGET: Collagenase 3 (Homo sapiens, UniProt P45452)
# EXPERIMENT_DESCRIPTION: Inhibition of human recombinant MMP13 using Cy3-PLGLK(Cy5Q)AR-NH2 as substrate after 40 mins by spectrofluorimetry
true if IC50 is below 6 nM. false if not; exact matches included in false.

- CHEMICAL_STRING: "COc1cccc(CNC(=O)c2nc3ccc(C#N)cc3c(=O)[nH]2)c1"
  CLASS: "false"
- CHEMICAL_STRING: "COc1cccc(CNC(=O)c2nc3cccc(COCc4ccccc4)c3c(=O)[nH]2)c1"
  CLASS: "true"
- CHEMICAL_STRING: "COc1cccc(CNC(=O)c2nc3cccc(F)c3c(=O)[nH]2)c1"
  CLASS: "true"
- CHEMICAL_STRING: "COc1cccc(CNC(=O)c2nc3cccc(NCCc4ccccc4)c3c(=O)[nH]2)c1"
  CLASS: "true"

Qu. Does the reported IC50 of COc1cccc(CNC(=O)c2nc3cccc(OC)c3c(=O)[nH]2)c1 stay below 6 nM?
Ans. false

Qu. Does the reported IC50 of COc1cccc(CNC(=O)c2nc3ccc(F)c(OCCc4ccc(F)cc4)c3c(=O)[nH]2)c1 stay below 6 nM?
Ans. true

Qu. Does the reported IC50 of COc1cccc(CNC(=O)c2nc3ccc(F)c(OCCc4ccc(N)cc4)c3c(=O)[nH]2)c1 stay below 6 nM?
Ans. true

Qu. Does the reported IC50 of COc1cccc(CNC(=O)c2nc3ccc(-c4ccccc4)cc3c(=O)[nH]2)c1 stay below 6 nM?
Ans. false

Qu. Does the reported IC50 of COc1cccc(CNC(=O)c2nc3cccc(C#N)c3c(=O)[nH]2)c1 stay below 6 nM?
Ans. false

Qu. Does the reported IC50 of COc1cccc(CNC(=O)c2nc3cccc(OCCN4CCCCC4)c3c(=O)[nH]2)c1 stay below 6 nM?
Ans. false

Every entry's value here was drawn from ChEMBL document CHEMBL3352689.
